test system: Salmonella Typhimurium TA100 strain; conditions: 10 µM; TA100; mutagenic if MI ≥ 2
Kindly return true (1) if reported MI (mutagenic index) is no lower than 0.9; return false (0) if it is lower.

>>> class_assignment("NC(=O)C[Se]C(=O)c1ccccc1 [EDA-117, Se-carbamoylmethyl benzoselenoate]")
"false (0)"
>>> class_assignment("COC(=O)C[Se]C(=O)Cc1ccccc1 [EDA-56]")
"false (0)"
>>> class_assignment("COC(=O)C[Se]C(=O)c1ccccc1 [EDA-53, methyl 2-(benzoylselanyl)acetate]")
"true (1)"

Q: Evaluate C[Se]C(=O)c1ccc(C(=O)[Se]C)cc1 [EDA-109] : MI (mutagenic index) at minimum 0.9?
Result: false (0)

Q: // next record COc1cccc2c1C(=O)c1c(O)c3c(c(O)c1C2=O)C[C@@](O)(C(=O)CO)C[C@@H]3O[C@H]1C[C@H](N)[C@H](O)[C@H](C)O1 [DOXO, doxorubicin, reference compound]
Result: true (1)

Q: // next record COC(=O)C[Se]C(=O)c1cc(OC)cc(OC)c1 [EDA-58]
Result: true (1)

Q: // next record CC(C)(C)C(=O)C[Se]C(=O)c1ccc(Cl)cc1 [EDA-73]
Result: false (0)

Each recorded value in this set is attributed to paper PMC8875489.
